Tested on: Daphnia magna
Assay: Daphnia magna acute 48 h immobilization assay (Daphtoxkit);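 also: test concentrations in mg per L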
Type: in vivo
Conditions: 48 h, concentration 1.5
Protocol: Six concentration levels (5 concentrations plus control, four replicate beakers for each concentrations, five individual for each beaker) were tested. […] Each experiment was repeated in triplicate.
Measure Name: Average effect (N immobile, 5 daphnids per replicate)
Just the number, please, no unit after it.

[
  {
    "Compound": "CNCC[C@@H](Oc1ccc(C(F)(F)F)cc1)c1ccccc1 [(R)-FL]",
    "Number": 0.25
  },
  {
    "Compound": "NCC[C@H](Oc1ccc(C(F)(F)F)cc1)c1ccccc1 [(S)-NFL]",
    "Number": 1
  },
  {
    "Compound": "CNCC[C@H](Oc1ccc(C(F)(F)F)cc1)c1ccccc1 [(S)-FL]",
    "Number": 1
  }
]

## Task Give the measured Average effect (N immobile, 5 daphnids per replicate) of NCC[C@@H](Oc1ccc(C(F)(F)F)cc1)c1ccccc1 [(R)-NFL] .
## Result 0.5

###

Tested on: Daphnia magna
Assay: Daphnia magna acute 48 h immobilization assay (Daphtoxkit);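 also: test concentrations in mg per L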
Assay type: in vivo
Conditions: 48 h, concentration 5
Experimental: Six concentration levels (5 concentrations plus control, four replicate beakers for each concentrations, five individual for each beaker) were tested. […] Each experiment was repeated in triplicate.
Measure Name: Average effect (N immobile, 5 daphnids per replicate)
Please give the numeric answer without any surrounding text.

[
  {
    "Molecule": "NCC[C@H](Oc1ccc(C(F)(F)F)cc1)c1ccccc1 [(S)-NFL]",
    "Target System": "Daphnia magna",
    "Number": 4
  },
  {
    "Molecule": "NCC[C@@H](Oc1ccc(C(F)(F)F)cc1)c1ccccc1 [(R)-NFL]",
    "Target System": "Daphnia magna",
    "Number": 4.25
  },
  {
    "Molecule": "CNCC[C@@H](Oc1ccc(C(F)(F)F)cc1)c1ccccc1 [(R)-FL]",
    "Target System": "Daphnia magna",
    "Number": 3.25
  }
]

Here is another molecule to look at.
## Task Returns the measured Average effect (N immobile, 5 daphnids per replicate) for the input molecule. Input: CNCC[C@H](Oc1ccc(C(F)(F)F)cc1)c1ccccc1 [(S)-FL]
## Result 3.25

###

system: Daphnia magna; experiment: Daphnia magna acute 48 h immobilization assay (Daphtoxkit); format: in vivo; details: 48 h, concentration 0.5;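 also: test concentrations in mg per L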
Measure Name: Average effect (N immobile, 5 daphnids per replicate)

Example molecules with recorded Average effect (N immobile, 5 daphnids per replicate):
[
  {
    "Molecule": "CNCC[C@H](Oc1ccc(C(F)(F)F)cc1)c1ccccc1 [(S)-FL]",
    "Result": 0.25
  },
  {
    "Molecule": "CNCC[C@@H](Oc1ccc(C(F)(F)F)cc1)c1ccccc1 [(R)-FL]",
    "Result": 0
  },
  {
    "Molecule": "NCC[C@@H](Oc1ccc(C(F)(F)F)cc1)c1ccccc1 [(R)-NFL]",
    "Result": 0.25
  }
]

Attention now turns to another entry.
## Task Query (molecule): NCC[C@H](Oc1ccc(C(F)(F)F)cc1)c1ccccc1 [(S)-NFL] ; field requested: Average effect (N immobile, 5 daphnids per replicate)
## Result 0.25
